Tested on: MOLT-4
Assay: NCI tumour cell line growth inhibition, 48 h
Activity calls are given as the source filed them. Cut-off read from the data, not from the text of the source: active = GI50 up to about 1.1 µM and inactive = higher.
Log the outcome using a class from true (1) (active), false (0) (inactive)

Completed entries (count: 5):
COMPOUND	ANSWER_LABEL
C=C(C=O)CCCC(C)[C@@H]1CCC23CC12CCC1[C@@]2(C)CCC(OC(C)=O)C(C)(C)C2CC(OC2OC(COC(C)=O)C(O)C(O)C2O)[C@]13C (stereo partly drawn)	true (1)
CN/C(=N\n1cnnc1)OC	false (0)
COc1ccc(CC(=O)N2CCC3(C)CC(=O)CC=C23)cc1OC (stereo not drawn)	false (0)
O=C1c2ccccc2-c2nc(-c3cccc([N+](=O)[O-])c3)nnc21	false (0)
COc1ccc(-c2c(C#N)c(-c3ccc(C)cc3)n(NS(=O)(=O)c3ccccc3)c(=O)c2C#N)cc1	false (0)

Asked: // return assay outcome for O=P(O)(CCP(=O)(O)c1ccccc1)c1ccccc1
Given back: false (0)

Asked: // return assay outcome for CC(=O)Oc1ccc2cc(-c3ccc(OC(C)=O)c(OC(C)=O)c3)c(=O)oc2c1
Given back: false (0)

Asked: // return assay outcome for NC(=O)CN1C=CCC(C(N)=O)=C1 [CARICOTAMIDE]
Given back: false (0)

----------
Exercise: for every item that follows, state its recorded GI50.
Tested on: U-251
Assay: NCI tumour cell line growth inhibition, 48 h
The source made the active and inactive calls. Rule as the data show it: active = GI50 up to about 1.1 µM and inactive = higher.

A selection of reference data follows.
COMPOUND	OBSERVED_VALUE
COC(=O)[C@@H]1C=CCN1S(=O)(=O)c1ccc(C)cc1	31.1 µM (inactive)
O=C(O)CSSCC(=O)O	> 100 µM (inactive)
COc1cc2c(c(O)c1OC)C(O)C1CCC(=O)N1C2c1ccc2c(c1)OCO2 (stereo unspecified)	> 100 µM (inactive)
CCOC(=O)C1=C(OC(OCC)C(CC)[Se]c2ccccc2)CCCC1 (stereo unspecified)	12.6 µM (inactive)
Cc1ccc(-c2cc(N)n(-c3nc4c(c(=O)n(C)c(=O)n4C)n3C)n2)cc1	> 100 µM (inactive)

We next turn to a different compound, shown below.
Asked: // Input: COc1cc(/C=C/c2csnn2)cc(OC)c1OC . Output its GI50 only.
Given back: > 100 µM (inactive)

----------
Tested on: HT-29
Assay: NCI tumour cell line growth inhibition, 48 h
Calls of active or inactive are those of the source. Rule as the data show it: active = GI50 up to about 1.1 µM and inactive = higher.
Exercise: for every item that follows, state its recorded GI50.

SMILES_INPUT	GI50
Cc1nc2cc(C(F)(F)F)ccc2[nH]c1=O	> 100 µM (inactive)
COc1cccc(-c2cc(O)c3cc(N)ccc3n2)c1	3.22 µM (inactive)

Asked: // Input: C/C(=N\NC(N)=S)c1sc(-n2nc(-c3ccccc3)cc2-c2ccccc2)nc1C . Output its GI50 only.
Given back: 37.5 µM (inactive)

----------
Exercise: for every item that follows, state its recorded GI50.
Test system: M14
Assay: NCI tumour cell line growth inhibition, 48 h
Active and inactive are the calls of the source. Rule as the data show it: active = GI50 up to about 1.1 µM and inactive = higher.

A selection of reference data follows.
MOLECULE	ASSAY_SYSTEM	GI50
CN(C)c1ccc2nc(CC(O)(C(F)(F)F)C(F)(F)F)ccc2c1	M14	> 10 µM (inactive)
CCCCCCCCCCCCC1NC(=N)NC2(CCCO2)C1C(=O)OC (centres undefined)	M14	3.33 µM (inactive)
CC1=C(c2ccccc2)CON(c2ccccc2)C1	M14	33.4 µM (inactive)
O=C1C=C(c2ccccc2)O/C1=C\C(=O)c1ccc(Cl)cc1	M14	19.6 µM (inactive)
O=C(/C=C/c1ccc2c(c1)OCO2)CC(=O)C(=O)c1c[nH]c2ccccc12	M14	63.2 µM (inactive)
c1csc(-c2ccc(-c3ccc(-c4cccs4)s3)s2)c1	M14	> 100 µM (inactive)

I'm hoping you can list GI50 for every molecule here, please.
1. Cc1cc2c(nn1)CCc1c-2no[n+]1[O-]
2. O=C(CN1C(=O)CC(c2ccccc2)(c2ccccc2)C1=O)N1CCN(CCO)CC1
3. Oc1nnc(CNc2ccc(Cl)cc2Cl)c2ccccc12

Given back:
1: > 100 µM (inactive); 2: > 100 µM (inactive); 3: 32 µM (inactive)

I'm hoping you can list GI50 for every molecule here, please.
1. CC(=O)c1c(-c2ccco2)c(C#N)c(=S)n(C2OC(CO)C(O)C(O)C2O)c1C (centres undefined)
2. COC(=O)c1cc(C#Cc2cc(OC)ccc2OC)ccc1OC
3. CC(=O)NC1=C(NCC(C)C)C(=O)c2ccccc2C1=O
4. CS(=O)(=O)N1CC(CCl)c2ccc([N+](=O)[O-])cc21 (centres undefined)
5. CCCc1cn2c(/C=N/NC(=N)N)c(-c3ccc([N+](=O)[O-])cc3)nc2s1

Given back:
1: 72.9 µM (inactive); 2: 34.8 µM (inactive); 3: 18.2 µM (inactive); 4: > 100 µM (inactive); 5: 1.93 µM (inactive)

Data credit: ChEMBL document CHEMBL1201862
